- system.under.test: High affinity nerve growth factor receptor (Homo sapiens, UniProt P04629)
- Sequence (P04629 whole entry): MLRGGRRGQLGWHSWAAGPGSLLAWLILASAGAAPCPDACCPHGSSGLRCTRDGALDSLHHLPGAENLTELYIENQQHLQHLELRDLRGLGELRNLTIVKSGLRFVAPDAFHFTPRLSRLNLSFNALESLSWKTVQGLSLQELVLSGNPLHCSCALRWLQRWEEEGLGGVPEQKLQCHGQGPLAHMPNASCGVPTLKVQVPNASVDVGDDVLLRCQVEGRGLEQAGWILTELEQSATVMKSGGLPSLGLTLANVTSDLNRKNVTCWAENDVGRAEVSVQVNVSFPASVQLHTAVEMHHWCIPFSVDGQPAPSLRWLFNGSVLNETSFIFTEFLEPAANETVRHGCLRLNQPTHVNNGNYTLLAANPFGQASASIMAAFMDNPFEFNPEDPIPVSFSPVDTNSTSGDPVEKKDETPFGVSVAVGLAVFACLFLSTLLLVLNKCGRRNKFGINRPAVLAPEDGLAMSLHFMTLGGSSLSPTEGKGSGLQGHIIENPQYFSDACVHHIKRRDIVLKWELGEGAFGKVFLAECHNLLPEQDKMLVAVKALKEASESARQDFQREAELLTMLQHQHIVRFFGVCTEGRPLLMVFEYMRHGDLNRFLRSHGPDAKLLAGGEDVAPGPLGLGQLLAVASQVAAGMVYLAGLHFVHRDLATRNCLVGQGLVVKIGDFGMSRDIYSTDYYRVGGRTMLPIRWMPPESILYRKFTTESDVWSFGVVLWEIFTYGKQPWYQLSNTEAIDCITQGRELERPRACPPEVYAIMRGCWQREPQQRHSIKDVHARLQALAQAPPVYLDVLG
- measurement.description: Inhibition of N-terminal His6-tagged human recombinant TrkA (440 to end residues) expressed in baculovirus infected insect Sf21 cells after 1 hr by Alphascreen assay
pIC50: −log10 of the molar value.
attribute.measured: pIC50

Reference set (2 entries):
# molecular.string, pIC50
measured = [
    ("c1ccc(-c2cnc3cncc(Nc4ccc(N5CCOCC5)cc4)c3n2)cc1", 5.27),
    ("COc1ccc(-c2cnc3c(Nc4ccc(N5CCCCC5)cc4)nccc3n2)cc1", 5.84),
]

I: COc1ccc(-c2cnc3cncc(Nc4ccc(N5CCCCC5)cc4)c3n2)cc1
II: c1ccc(-c2cnc3c(Nc4ccc(N5CCOCC5)cc4)nccc3n2)cc1
Query: Of the two listed items, which has the higher pIC50? First: I Second: II Answer format: the label of the selected item.
Reply: I

###

- system.under.test: Mitogen-activated protein kinase 1 (Homo sapiens)
- Sequence (P28482 whole entry): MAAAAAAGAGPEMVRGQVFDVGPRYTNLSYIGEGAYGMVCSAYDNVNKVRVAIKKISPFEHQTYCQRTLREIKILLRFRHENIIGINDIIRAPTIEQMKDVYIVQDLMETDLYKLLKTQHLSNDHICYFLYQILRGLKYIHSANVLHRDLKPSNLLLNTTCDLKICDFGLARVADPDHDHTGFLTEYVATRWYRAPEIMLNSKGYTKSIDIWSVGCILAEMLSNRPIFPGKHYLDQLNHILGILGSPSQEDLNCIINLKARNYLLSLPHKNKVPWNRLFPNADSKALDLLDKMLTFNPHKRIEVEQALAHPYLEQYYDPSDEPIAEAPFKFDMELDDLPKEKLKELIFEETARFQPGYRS
- measurement.description: Inhibition of recombinant ERK2 (unknown origin) after 1 hr by Alphascreen assay
attribute.measured: IC50 (µM)

Reference set (2 entries):
# molecular.string, IC50 (µM)
rows = [
    ("COc1ccc(NC(=O)Nc2cncc3nc(-c4ccccc4)cnc23)cc1", 5.25),
    ("COc1ccc(-c2cnc3c(Nc4ccc(N5CCCCC5)cc4)nccc3n2)cc1", 1.44),
]

I: c1ccc(-c2cnc3cncc(Nc4ccc(N5CCCCC5)cc4)c3n2)cc1
II: COc1cccc(Nc2cncc3ncc(-c4ccc(N5CCCCC5)cc4)nc23)c1
Query: Would you kindly point out which of I and II has the smaller IC50 figure? Answer format: the label of the selected item.
Reply: I
(I: 2.02 µM, II: 16.6 µM)

###

- system.under.test: UniProt P35968
- Sequence (P35968 whole entry): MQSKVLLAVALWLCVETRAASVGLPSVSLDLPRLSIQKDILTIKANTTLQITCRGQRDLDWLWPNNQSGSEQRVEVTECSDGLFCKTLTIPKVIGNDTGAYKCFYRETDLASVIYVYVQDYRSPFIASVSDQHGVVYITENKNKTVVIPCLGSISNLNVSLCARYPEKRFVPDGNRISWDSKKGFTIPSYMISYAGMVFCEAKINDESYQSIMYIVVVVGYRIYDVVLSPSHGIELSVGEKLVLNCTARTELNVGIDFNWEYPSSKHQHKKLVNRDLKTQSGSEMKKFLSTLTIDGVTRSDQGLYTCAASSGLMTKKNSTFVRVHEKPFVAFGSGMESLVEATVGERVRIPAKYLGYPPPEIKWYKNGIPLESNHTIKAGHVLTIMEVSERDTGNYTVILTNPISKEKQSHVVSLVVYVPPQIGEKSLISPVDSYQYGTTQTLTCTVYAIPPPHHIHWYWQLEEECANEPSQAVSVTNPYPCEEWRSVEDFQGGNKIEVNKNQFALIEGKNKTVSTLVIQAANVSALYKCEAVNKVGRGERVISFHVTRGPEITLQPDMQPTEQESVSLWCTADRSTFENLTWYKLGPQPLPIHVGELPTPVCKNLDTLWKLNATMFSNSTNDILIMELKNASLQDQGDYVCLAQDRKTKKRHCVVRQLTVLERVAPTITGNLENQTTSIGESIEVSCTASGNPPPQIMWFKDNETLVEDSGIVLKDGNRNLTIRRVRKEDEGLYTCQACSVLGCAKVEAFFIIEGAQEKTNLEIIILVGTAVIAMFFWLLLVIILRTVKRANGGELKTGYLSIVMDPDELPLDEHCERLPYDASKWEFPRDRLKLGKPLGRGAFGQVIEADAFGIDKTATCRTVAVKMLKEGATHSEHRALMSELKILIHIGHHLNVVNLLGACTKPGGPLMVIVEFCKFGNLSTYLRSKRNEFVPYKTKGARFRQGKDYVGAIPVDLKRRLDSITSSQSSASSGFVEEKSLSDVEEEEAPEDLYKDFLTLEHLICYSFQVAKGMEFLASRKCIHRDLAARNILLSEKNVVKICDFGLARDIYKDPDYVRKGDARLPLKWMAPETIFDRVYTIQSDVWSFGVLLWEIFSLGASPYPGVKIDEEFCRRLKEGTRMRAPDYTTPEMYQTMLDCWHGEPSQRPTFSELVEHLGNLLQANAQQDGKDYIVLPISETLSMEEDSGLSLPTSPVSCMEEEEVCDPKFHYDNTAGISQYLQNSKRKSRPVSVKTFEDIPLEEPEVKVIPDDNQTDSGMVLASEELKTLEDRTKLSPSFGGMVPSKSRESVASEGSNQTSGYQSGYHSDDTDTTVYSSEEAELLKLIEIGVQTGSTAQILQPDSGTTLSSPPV
- measurement.description: Inhibition of N-terminal His6-tagged human recombinant KDR (790 to end residues) expressed in baculovirus infected insect Sf21 cells after 1 hr by Alphascreen assay
attribute.measured: IC50 (µM)

Reference set (5 entries):
# molecular.string, IC50 / µM
measured = [
    ("COc1ccc(-c2cnc3c(Nc4ccc(N5CCCCC5)cc4)nccc3n2)cc1", 1.99),
    ("c1ccc(-c2cnc3c(Nc4ccc(N5CCCCC5)cc4)cncc3n2)cc1", 2.06),
    ("c1ccc(Nc2cncc3ncc(-c4ccc(N5CCCCC5)cc4)nc23)cc1", 11.1),
    ("COc1ccc(-c2cnc3cncc(Nc4ccc(N5CCOCC5)cc4)c3n2)cc1", 3.31),
    ("COc1ccc(-c2cnc3cncc(Nc4ccc(N5CCCCC5)cc4)c3n2)cc1", 2.05),
]

a: c1ccc(-c2cnc3c(Nc4ccc(N5CCCCC5)cc4)nccc3n2)cc1
b: c1ccc(-c2cnc3cncc(Nc4ccc(N5CCOCC5)cc4)c3n2)cc1
Query: Of the two listed items, which has the higher IC50? First: a Second: b Answer format: the label of the selected item.
Reply: b
(b: 6.12 µM, a: 1.1 µM)

I: c1ccc(-c2cnc3cncc(Nc4ccc(N5CCCCC5)cc4)c3n2)cc1
II: COc1ccc(-c2cnc3c(Nc4ccc(N5CCOCC5)cc4)nccc3n2)cc1
Query: Would you kindly point out which of I and II has the smaller IC50 figure? Answer format: the label of the selected item.
Reply: I

I: COc1ccc(-c2cnc3cncc(Nc4cc(OC)ccc4OC)c3n2)cc1
II: c1ccc(-c2cnc3cnc(Nc4ccc(N5CCCCC5)cc4)cc3n2)cc1
Query: Of the two listed items, which has the higher IC50? First: I Second: II Answer format: the label of the selected item.
Reply: II

I: c1ccc(-c2cnc3c(Nc4ccc(N5CCOCC5)cc4)nccc3n2)cc1
II: COc1cccc(Nc2cncc3ncc(-c4ccc(N5CCCCC5)cc4)nc23)c1
Query: Would you kindly point out which of I and II has the smaller IC50 figure? Answer format: the label of the selected item.
Reply: II
(II: 8.84 µM, I: 16 µM)

###

- system.under.test: Tyrosine-protein kinase ABL1 (Homo sapiens)
- measurement.description: Inhibition of recombinant c-Abl (unknown origin) after 1 hr by Alphascreen assay
attribute.measured: IC50 (µM)

# molecular.string, IC50 (µM)
rows = [
    ("c1ccc(Nc2cncc3ncc(-c4ccc(N5CCCCC5)cc4)nc23)cc1", 6.84),
    ("COc1ccc(-c2cnc3cncc(Nc4cc(OC)ccc4OC)c3n2)cc1", 1.37),
]

1: COc1ccccc1Nc1nccc2nc(-c3ccccc3)cnc12
2: COc1ccc(-c2cnc3cncc(Nc4ccc(N5CCCCC5)cc4)c3n2)cc1
Query: Would you kindly point out which of 1 and 2 has the smaller IC50 figure? Answer format: the label of the selected item.
Reply: 2

###

- system.under.test: Tyrosine-protein kinase ABL1 (Homo sapiens, UniProt P00519)
- Sequence (P00519 whole entry): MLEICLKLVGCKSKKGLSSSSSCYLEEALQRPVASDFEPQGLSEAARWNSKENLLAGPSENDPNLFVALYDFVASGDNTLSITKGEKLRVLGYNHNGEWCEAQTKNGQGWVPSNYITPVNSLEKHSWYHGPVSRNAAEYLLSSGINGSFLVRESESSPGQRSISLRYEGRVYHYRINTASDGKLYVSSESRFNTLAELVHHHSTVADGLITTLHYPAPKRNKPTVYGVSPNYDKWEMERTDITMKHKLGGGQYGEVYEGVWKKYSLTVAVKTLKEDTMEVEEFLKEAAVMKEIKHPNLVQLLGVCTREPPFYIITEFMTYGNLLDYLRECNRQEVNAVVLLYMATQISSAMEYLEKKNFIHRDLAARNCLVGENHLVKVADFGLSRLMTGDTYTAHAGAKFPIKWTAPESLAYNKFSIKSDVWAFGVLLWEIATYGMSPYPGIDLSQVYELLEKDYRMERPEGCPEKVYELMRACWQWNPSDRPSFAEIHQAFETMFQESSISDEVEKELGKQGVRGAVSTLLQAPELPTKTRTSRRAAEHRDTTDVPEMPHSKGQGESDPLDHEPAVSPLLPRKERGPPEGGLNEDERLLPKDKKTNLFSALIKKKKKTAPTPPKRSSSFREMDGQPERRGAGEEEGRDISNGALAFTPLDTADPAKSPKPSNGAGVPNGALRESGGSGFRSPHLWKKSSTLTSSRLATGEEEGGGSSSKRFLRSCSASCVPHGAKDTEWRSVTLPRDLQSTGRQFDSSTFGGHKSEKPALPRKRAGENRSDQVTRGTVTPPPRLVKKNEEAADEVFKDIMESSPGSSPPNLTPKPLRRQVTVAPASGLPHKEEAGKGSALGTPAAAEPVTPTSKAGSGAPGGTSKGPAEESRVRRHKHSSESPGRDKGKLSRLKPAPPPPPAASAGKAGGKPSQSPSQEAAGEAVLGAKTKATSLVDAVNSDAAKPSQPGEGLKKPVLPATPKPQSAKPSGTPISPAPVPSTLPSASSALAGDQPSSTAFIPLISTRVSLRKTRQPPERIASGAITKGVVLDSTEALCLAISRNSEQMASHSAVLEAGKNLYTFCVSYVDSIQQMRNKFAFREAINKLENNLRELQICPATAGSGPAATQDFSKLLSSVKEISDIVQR
- measurement.description: Inhibition of recombinant c-Abl (unknown origin) after 1 hr by Alphascreen assay
attribute.measured: IC50 (µM)

1: c1ccc(-c2cnc3c(Nc4ccc(N5CCCCC5)cc4)cncc3n2)cc1
2: COc1cccc(Nc2cncc3nc(-c4ccc(N5CCCCC5)cc4)cnc23)c1
3: COc1ccc(-c2cnc3c(Nc4ccc(N5CCOCC5)cc4)nccc3n2)cc1
Query: Please rank the 3 items above; order by IC50, the highest number leading. Hello, could you send the labels back in the order asked? Thank you.
Reply: 2, 3, 1
(2: 7.91 µM, 3: 5.37 µM, 1: 2.54 µM)

###

- system.under.test: Tyrosine-protein kinase Yes (Homo sapiens)
- Sequence (P07947 whole entry): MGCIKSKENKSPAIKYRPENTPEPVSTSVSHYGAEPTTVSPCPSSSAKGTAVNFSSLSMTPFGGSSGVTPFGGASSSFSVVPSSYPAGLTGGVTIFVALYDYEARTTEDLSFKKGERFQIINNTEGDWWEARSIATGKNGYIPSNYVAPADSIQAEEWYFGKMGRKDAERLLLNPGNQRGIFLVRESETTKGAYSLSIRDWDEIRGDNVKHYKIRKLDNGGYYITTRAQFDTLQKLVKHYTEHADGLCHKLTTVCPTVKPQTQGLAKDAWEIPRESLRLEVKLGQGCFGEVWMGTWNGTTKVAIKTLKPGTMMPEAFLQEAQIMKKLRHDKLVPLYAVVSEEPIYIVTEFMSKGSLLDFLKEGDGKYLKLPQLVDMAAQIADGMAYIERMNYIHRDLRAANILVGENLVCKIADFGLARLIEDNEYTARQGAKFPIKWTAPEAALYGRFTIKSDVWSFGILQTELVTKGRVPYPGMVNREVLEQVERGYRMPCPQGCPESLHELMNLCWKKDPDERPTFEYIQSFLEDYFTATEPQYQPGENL
- measurement.description: Inhibition of N-terminal His6-tagged human recombinant Yes expressed in baculovirus infected insect Sf21 cells after 1 hr by Alphascreen assay
pIC50: −log10 of the molar value.
attribute.measured: pIC50

# molecular.string, pIC50
rows = [
    ("COc1ccc(NC(=O)Nc2cncc3nc(-c4ccccc4)cnc23)cc1", 4.66),
]

a: c1ccc(-c2cnc3cncc(Nc4ccc(N5CCCCC5)cc4)c3n2)cc1
b: COc1ccc(-c2cnc3c(Nc4ccc(N5CCCCC5)cc4)nccc3n2)cc1
Query: Of the two listed items, which has the higher pIC50? First: a Second: b Answer format: the label of the selected item.
Reply: b

P: COc1ccc(Nc2nccc3nc(-c4ccccc4)cnc23)cc1
Q: c1ccc(-c2cnc3c(Nc4ccc(N5CCOCC5)cc4)nccc3n2)cc1
Query: Of the two listed items, which has the higher pIC50? First: P Second: Q Answer format: the label of the selected item.
Reply: Q
(Q: 4.90, P: 4.50)

###

- system.under.test: Serine/threonine-protein kinase pim-1 (Homo sapiens, UniProt P11309)
- Sequence (P11309 whole entry): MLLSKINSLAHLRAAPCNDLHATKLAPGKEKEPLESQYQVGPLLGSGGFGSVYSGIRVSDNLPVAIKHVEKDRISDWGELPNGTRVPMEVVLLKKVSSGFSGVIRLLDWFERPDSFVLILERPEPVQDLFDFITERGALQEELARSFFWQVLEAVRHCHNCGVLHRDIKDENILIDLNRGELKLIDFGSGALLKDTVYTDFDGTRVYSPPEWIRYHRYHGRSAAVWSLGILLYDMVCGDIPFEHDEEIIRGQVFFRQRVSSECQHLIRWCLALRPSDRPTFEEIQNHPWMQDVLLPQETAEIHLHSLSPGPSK
- measurement.description: Inhibition of N-terminal GST-tagged recombinant human full length Pim-1 expressed in Escherichia coli after 1 hr by Alphascreen assay
Attribute: IC50

Reference set (5 entries):
# molecular.string, system.under.test, attribute.measured, value
data = [
    ("c1ccc(-c2cnc3c(Nc4ccc(N5CCCCC5)cc4)nccc3n2)cc1", "Serine/threonine-protein kinase pim-1 (Homo sapiens, UniProt P11309)", "IC50", "4.91 µM"),
    ("c1ccc(-c2cnc3cnc(Nc4ccc(N5CCOCC5)cc4)cc3n2)cc1", "Serine/threonine-protein kinase pim-1 (Homo sapiens, UniProt P11309)", "IC50", "> 100 µM"),
    ("COc1cccc(Nc2nccc3nc(-c4ccccc4)cnc23)c1", "Serine/threonine-protein kinase pim-1 (Homo sapiens, UniProt P11309)", "IC50", "> 100 µM"),
    ("COc1cccc(Nc2cncc3nc(-c4ccc(N5CCCCC5)cc4)cnc23)c1", "Serine/threonine-protein kinase pim-1 (Homo sapiens, UniProt P11309)", "IC50", "> 100 µM"),
    ("C#Cc1cccc(Nc2nccc3nc(-c4ccccc4)cnc23)c1", "Serine/threonine-protein kinase pim-1 (Homo sapiens, UniProt P11309)", "IC50", "> 100 µM"),
]

Sample CCNC(=O)Nc1nccc2nc(-c3ccccc3)cnc12 ; IC50 observed: > 100 µM

Sample COc1ccc(-c2cnc3cncc(Nc4ccc(N5CCOCC5)cc4)c3n2)cc1 ; IC50 observed: 4.4 µM

Sample c1ccc(-c2cnc3c(Nc4ccc(N5CCCCC5)cc4)cncc3n2)cc1 ; IC50 observed: 2.81 µM

Sample c1ccc(-c2cnc3cncc(Nc4ccc(N5CCOCC5)cc4)c3n2)cc1 ; IC50 observed: 8.3 µM

Sample c1ccc(Nc2cncc3nc(-c4ccc(N5CCCCC5)cc4)cnc23)cc1 ; IC50 observed: > 100 µM

Sample c1ccc(-c2cnc3cc(Nc4ccc(N5CCCCC5)cc4)ncc3n2)cc1 ; IC50 observed: > 100 µM

###

- system.under.test: Mitogen-activated protein kinase 1 (Homo sapiens)
- measurement.description: Inhibition of recombinant ERK2 (unknown origin) after 1 hr by Alphascreen assay
pIC50: −log10 of the molar value.
attribute.measured: pIC50

# molecular.string, system.under.test, value
records = [
    ("COc1cccc(NC(=O)Nc2cncc3nc(-c4ccccc4)cnc23)c1", "Mitogen-activated protein kinase 1 (Homo sapiens)", "< 4.50"),
]

Sample COc1ccc(-c2cnc3cncc(Nc4ccc(N5CCCCC5)cc4)c3n2)cc1 ; pIC50 observed: 5.50

Sample COc1cccc(Nc2cncc3nc(-c4ccc(N5CCCCC5)cc4)cnc23)c1 ; pIC50 observed: < 4.00

Sample COc1ccc(-c2cnc3c(Nc4ccc(N5CCOCC5)cc4)nccc3n2)cc1 ; pIC50 observed: < 4.00

Sample COc1ccc(Nc2nccc3nc(-c4ccccc4)cnc23)cc1 ; pIC50 observed: < 4.00

Sample C=CCNC(=O)Nc1cncc2nc(-c3ccccc3)cnc12 ; pIC50 observed: < 4.50

Sample COc1cccc(NC(=O)Nc2nccc3nc(-c4ccccc4)cnc23)c1 ; pIC50 observed: < 4.00

Sample c1ccc(-c2cnc3c(Nc4ccc(N5CCOCC5)cc4)nccc3n2)cc1 ; pIC50 observed: < 4.00
